Provenance of the data: ChEMBL document CHEMBL3137667

Conditions: human
readout_kind: Hepatotoxicity (choleostasis)
Enter a number only.

[
  {
    "compound": "CC(C)(C)C(=O)OCOC(=O)[C@@H]1N2C(=O)[C@@H](/N=C/N3CCCCCC3)[C@H]2SC1(C)C",
    "Hepatotoxicity (choleostasis)": 0
  },
  {
    "compound": "NNc1nnc(NN)c2ccccc12 [DIHYDRALAZINE]",
    "Hepatotoxicity (choleostasis)": 5
  }
]

Name the recorded Hepatotoxicity (choleostasis) of the item CC(Cc1ccccc1)(NC(=O)CN)c1ccccc1 (stereo unspecified) [REMACEMIDE] in your answer.
0

Name the recorded Hepatotoxicity (choleostasis) of the item CCC(=O)NS(=O)(=O)c1ccc(-c2c(-c3ccccc3)noc2C)cc1 in your answer.
0

Name the recorded Hepatotoxicity (choleostasis) of the item CC[C@]1(O)C[C@@H]2CN(CCc3c([nH]c4ccccc34)[C@@](C(=O)OC)(c3cc4c(cc3OC)N(C)[C@H]3[C@@](O)(C(=O)OC)[C@H](OC(C)=O)[C@]5(CC)C=CCN6CC[C@]43[C@@H]65)C2)C1 in your answer.
1

Name the recorded Hepatotoxicity (choleostasis) of the item O=C(O)Cc1nn(Cc2nc3cc(C(F)(F)F)ccc3s2)c(=O)c2ccccc12 in your answer.
0

Name the recorded Hepatotoxicity (choleostasis) of the item CCCCNc1cc(C(=O)O)cc(S(N)(=O)=O)c1Oc1ccccc1 [BUMETANIDE] in your answer.
0

====

Details: human, serum
Below: a set of entries, each annotated with reported Hepatotoxicity (acute).
Enter a number only.

[
  {
    "substance": "CISPLATIN",
    "Hepatotoxicity (acute)": 3
  },
  {
    "substance": "ASPARAGINASE",
    "Hepatotoxicity (acute)": 2
  },
  {
    "substance": "NADROPARIN CALCIUM",
    "Hepatotoxicity (acute)": 0
  }
]

Name the recorded Hepatotoxicity (acute) of the item PENTOSAN POLYSULFATE SODIUM in your answer.
1

Name the recorded Hepatotoxicity (acute) of the item REVIPARIN SODIUM in your answer.
0

Name the recorded Hepatotoxicity (acute) of the item UROKINASE in your answer.
1

Name the recorded Hepatotoxicity (acute) of the item POLOXAMER in your answer.
0

Name the recorded Hepatotoxicity (acute) of the item EPOETIN ALFA in your answer.
0

Name the recorded Hepatotoxicity (acute) of the item RITUXIMAB in your answer.
4

====

Details: human
readout_kind: Hepatotoxicity (animal toxicity known)

[
  {
    "compound": "Nc1c2c(nc3ccccc13)CCCC2",
    "readout_kind": "Hepatotoxicity (animal toxicity known)",
    "assay_result": "yes"
  },
  {
    "compound": "CC[C@]1(O)C[C@@H]2CN(CCc3c([nH]c4ccccc34)[C@@](C(=O)OC)(c3cc4c(cc3OC)N(C)[C@H]3[C@@](O)(C(N)=O)[C@H](O)[C@]5(CC)C=CCN6CC[C@]43[C@@H]65)C2)C1",
    "readout_kind": "Hepatotoxicity (animal toxicity known)",
    "assay_result": "yes"
  },
  {
    "compound": "CC1(C)S[C@@H]2[C@H](NC(=O)Cc3ccccc3)C(=O)N2[C@H]1C(=O)O",
    "readout_kind": "Hepatotoxicity (animal toxicity known)",
    "assay_result": "yes"
  },
  {
    "compound": "CNC(=O)OCc1cccc(COC(=O)NC)n1 [PYRICARBATE]",
    "readout_kind": "Hepatotoxicity (animal toxicity known)",
    "assay_result": "A"
  }
]
